Ref: the supplement of paper PMC10127200

System: 786-O
method_summary: Euclidean distance of Cell Painting phenotypic profile (signed KS, 77 features) to DMSO centroid (dimensionless distance); 5 or 10 uM (library dependent); higher = stronger phenotypic change vs DMSO (phenoactivity)
study_conditions: 48 h
Could you label it criterion met if measured Euclidean distance is 1 or higher, and criterion not met otherwise?

1) CC(C)(C)C(O)/C=C/c1ccc2c(c1)OCO2 (centres undefined) [Stiripentol]    criterion not met
2) CCCCCOc1ccc(-c2ccc(-c3ccc(C(=O)N[C@H]4C[C@@H](O)[C@@H](O)NC(=O)[C@@H]5[C@@H](O)[C@@H](C)CN5C(=O)[C@H]([C@@H](C)O)NC(=O)[C@H]([C@H](O)[C@@H](O)c5ccc(O)cc5)NC(=O)[C@@H]5C[C@@H](O)CN5C(=O)[C@H]([C@@H](C)O)NC4=O)cc3)cc2)cc1    criterion not met
3) CO[C@@]12[C@H](COC(N)=O)C3=C(C(=O)C(C)=C(N)C3=O)N1C[C@@H]1N[C@@H]12 [Mitomycin C]    criterion met
4) CC(C)(C)C(=O)Oc1ccc(S(=O)(=O)Nc2ccccc2C(=O)NCC(=O)O)cc1 [Sivelestat sodium tetrahydrate]    criterion not met
5) Oc1ccc([C@H]2COc3cc(O)ccc3C2)cc1 (racemic)    criterion met
6) CC(C)C[C@@H](C=O)NC(=O)[C@H](CC(C)C)NC(=O)[C@H](CC(C)C)NC(=O)OCc1ccccc1    criterion met
7) NS(=O)(=O)c1cc2c(cc1Cl)NC(C1CC3C=CC1C3)NS2(=O)=O (centres undefined) [Cyclothiazide]    criterion met

Consider the additional compound presented here.
Task: Would you say O=C(O)c1cc(-c2ccc(F)cc2F)ccc1O [Diflunisal] shows Euclidean distance at minimum 1?
Output: criterion met
